Test system: sensitivity to distension of th colonic wall
Test: Glass bead expulsion test (time between rectal insertion and expulsion of bead)
Type: in vivo, male albino mice
Conditions: Mus musculus, 1 h; oral; drug given one hour prior to glass bead insertion; ED50 = dose causing an activity index of 2; read-out: ED50 Per Os
Response field label: string, one of true (ED50 strictly below 40 mg/kg) or false.

1. Cl.O=C(N=C1NCCN1)Nc1c(Cl)cccc1Cl [2,6-diCl-.phi.] = true

Prompt line: Does Cc1cccc(C)c1NC(=O)N=C1NCCN1 [2,6-di(CH3)-.phi.] have ED50 strictly under 40 mg/kg?
Response line: true

Prompt line: I'd appreciate it if you could check whether Cc1cccc(Cl)c1NC(=O)N=C1NCCN1.Cl [2-Cl,6-CH3 -.phi.] has ED50 smaller than 40 mg/kg.
Response line: true

Prompt line: Consider the molecule CCc1cccc(C)c1NC(=O)N=C1NCCN1 [2-C2 H5,6-CH3 -.phi.] . Is its ED50 strictly less than 40 mg/kg?
Response line: false

Prompt line: Here's an entry: Cl.O=C(N=C1NCCN1)Nc1c(Br)cccc1Br [2,6-diBr-.phi.] . Is its ED50 below 40 mg/kg?
Response line: true

* * *

Tested on: sensitivity to distension of th colonic wall
Experiment: Glass bead expulsion test (time between rectal insertion and expulsion of bead)
Type: in vivo, male albino mice
Conditions: Mus musculus, ip, 1 h; intraperitoneal; drug given one hour prior to glass bead insertion; ED50 = dose causing an activity index of 2; read-out: ED50 Intraperitoneal
The label is yes for ED50 below 10 mg/kg and no for ED50 equal to or exceeding 10 mg/kg.

Worked cases, answers included:
1. Cl.O=C(N=C1NCCN1)Nc1c(Br)cccc1Br = yes
2. Cc1cccc(C)c1NC(=O)N=C1NCCN1 = no
3. CCc1cccc(C)c1NC(=O)N=C1NCCN1 = no
4. Cc1cccc(Cl)c1NC(=O)N=C1NCCN1.Cl = yes

Prompt line: Answer whether the molecule `Cl.O=C(N=C1NCCN1)Nc1c(Cl)cccc1Cl` has ED50 strictly less than 10 mg/kg
Response line: yes
